Entry source: PubChem BioAssay

Assay: CREB reporter modulators under forskolin, primary screen, cell-based, PC12, CRE-LacZ reporter, forskolin-stimulated (AID 1146);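 also: PC12 cells with 6xCRE LacZ reporter stimulated by forskolin 10 µM; beta-galactosidase reporter signal reflecting CREB driven transcription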
Details: luminescence, 4.5 h, higher = more signal, called active from +8 up or from −8 down
z-score of 0.8 or higher: criterion met. Under 0.8: criterion not met.

Ask: Determine whether measured z-score meets or exceeds 0.8 for CCCCCCCCCCC(O)C1C=CC2C(=O)N(C)C(=O)C2N1Nc1ccccc1 (configuration not stated)
Reply: criterion met

Ask: Textbook exercise: given the entry CC(C)N1C(=O)[C@@]2(Cc3ccccc31)c1ccccc1C(=O)N(Cc1ccccc1C(F)(F)F)[C@H]2c1ccc(CO)cc1 , state whether its z-score is greater than or equal to 0.8.
Reply: criterion not met

Ask: Dear colleague, could you confirm whether CC(C)c1ccc(NN2C(C(O)c3ccccc3)C=CC3C(=O)N(c4ccccc4)C(=O)C32)cc1 (configuration not stated) has z-score at or above 0.8?
Reply: criterion not met

Ask: Tell me whether z-score is at least 0.8 here: CCOC(=O)C1=CC[C@@H](c2ccccc2)N(S(=O)(=O)c2ccc(C)cc2)[C@@H]1C#N
Reply: criterion met

Ask: Hello, I need to know if C=CCNC(=O)[C@@H]1[C@H]2C(=O)O[C@H](c3ccccc3)[C@H](c3ccccc3)N2[C@H](c2ccc(OCCO)cc2)[C@@]12C(=O)Nc1ccc(C#CCNC(N)=O)cc12 has measured z-score not below 0.8. Thanks!
Reply: criterion not met

Ask: Record [N-]=[N+]=NCc1ccccc1[C@H]1OC(c2ccc(OCCCO)cc2)=N[C@@]1(CCS(=O)(=O)c1ccccc1)C(=O)O ; criterion: z-score no lower than 0.8. Met?
Reply: criterion not met

Ask: Hello, I need to know if O=C1O[C@H](c2ccccc2)[C@H](c2ccccc2)N2[C@H]1[C@@H](C(=O)O)[C@]1(C(=O)Nc3ccc(C#CC4(O)CCCCCC4)cc31)[C@H]2c1ccccc1OCCO has measured z-score not below 0.8. Thanks!
Reply: criterion met

---

Assay: inhibitors of hydroxyurea-induced Chk1 phosphorylation, primary screen, imaging, HeLa, phospho-Chk1 nuclear intensity (AID 1187)
Conditions: hydroxyurea-induced phospho-Chk1 immunofluorescence imaging, higher = more signal
metric: z-score
The answer should be a number; do not append a unit.

Ask: Entry CC(C)N1C(=O)[C@@]2(Cc3ccccc31)c1ccccc1C(=O)N(Cc1ccccc1C(F)(F)F)[C@H]2c1ccc(CO)cc1 has what z-score?
Reply: -0.0497

Ask: Given the molecule O=C1C2C=CC(C(O)C(c3ccccc3)c3ccccc3)N(Nc3ccccc3F)C2C(=O)N1c1ccccc1 (stereo not given) , what is its reported z-score?
Reply: 0.29

Ask: What measured z-score goes with COC(=O)[C@@]1(Cc2ccc(F)cc2)[C@@H]2C(=CC(=O)[C@H]2CC(=O)C(=O)N2CCCC2)CN1C(=O)c1ccccc1 ?
Reply: 0.278

Ask: // lookup z-score for C=CCNC(=O)[C@H]1[C@@H]2C(=O)O[C@@H](c3ccccc3)[C@@H](c3ccccc3)N2[C@@H](c2ccc(OCCO)cc2)[C@]12C(=O)N(C(=O)OCCOC)c1ccc(C#CCNC(N)=O)cc12
Reply: -0.209

Ask: Data request, read-out z-score, for C=C(CC1([C@@H](NP(=O)(c2ccccc2)c2ccccc2)[C@H]2C[C@@H]2CCCC)CC1)c1cccc(OC)c1
Reply: 0.788

Ask: Fill blank: measured z-score of the molecule COC(=O)[C@@]1(Cc2ccc(F)cc2)[C@H]2c3cc(C(=O)N(C)C)n(CCF)c3C[C@H]2CN1C(=O)c1ccccc1 is ____.
Reply: -0.595

Ask: What does the data say about its z-score? Entry: COC(=O)C1=CC(c2ccc(CO)cc2)=CC(C2CC2)N(Cc2cc3c(cc2Br)OCO3)C=C1C(=O)OC (stereo not given)
Reply: -0.0211

Ask: Which z-score is reported for this molecule? COc1ccc([Si](C)(C)[C@H]2[C@H](CC(=O)N3CCC[C@H]3CO)O[C@@]3(C(=O)N(C)c4c(Br)cc(C)cc43)[C@@H]2C)cc1
Reply: 0.523

Ask: # get_value(readout='z-score', item= COC(=O)[C@@]1(Cc2ccc(F)cc2)[C@H]2c3cc(C(=O)N4CCCC4)n(Cc4ccc(C(F)(F)F)nc4)c3C[C@H]2CN1C(=O)c1ccccc1 )
Reply: 0.554

Ask: # query: z-score of entry CCCCC=C[C@@H](NC(=O)C(C)(C)C)c1ccccc1
Reply: -0.124

Ask: Need z-score of CN1C(=O)C2C=CC(C(O)c3cccs3)N(N(c3ccccc3)c3ccccc3)C2C1=O (stereo not given) , thanks.
Reply: -0.499

Ask: Looking for the measured z-score of COC(=O)[C@@]1(Cc2ccc(F)cc2)[C@H]2c3cc(C(=O)N(C)C)n(Cc4ccsc4Br)c3C[C@H]2CN1C(=O)c1ccccc1 , can you help?
Reply: -1.12

Ask: Which value of z-score has been reported for C=CCNC(=O)[C@@H]1[C@H]2C(=O)O[C@H](c3ccccc3)[C@H](c3ccccc3)N2[C@H](c2ccc(O)cc2)[C@@]12C(=O)Nc1ccc(C#CC3=CCCCC3)cc12 in the records?
Reply: -0.275

Ask: Would you mind telling me what z-score value was observed for C[C@]12C(=O)N(CCO)[C@@H]3C(=O)N(c4ccc(Cl)cc4)CC=CC31O[C@@H]1/C=C\CCCOC(=O)C12 (stereo not given in full) ?
Reply: 0.129

Ask: Could you tell me which z-score is on file for COCCOC(=O)N1C(=O)[C@@]2(c3cc(C#CCC(C(=O)OC)C(=O)OC)ccc31)[C@H](C(N)=O)[C@H]1C(=O)O[C@H](c3ccccc3)[C@H](c3ccccc3)N1[C@@H]2c1ccccc1OCCO ?
Reply: -1.57

---

Tested on: XIP peptide (Xip251-270)
Experiment: small-molecule binders of XIP peptide, primary screen, biochemical, small-molecule microarray, fluorescence 635/667 nm, 0.5 µg/mL protein (AID 1183)
Settings: small-molecule microarray binding, fluorescence 635 nm; higher = more signal
Binary call on composite z-score: Yes from 0.6 upward, No beneath that.

Ask: Is composite z-score at least 0.6? Consider CC1CC/C=C\[C@H]2OC34C=CCN(CCN5CCOCC5)C(=O)[C@H]3N(C(CO)C(C)C)C(=O)[C@@H]4C2C(=O)O1 (stereo partly specified)
Reply: No

Ask: Would you say CO[C@H]1O[C@H](CO)[C@@H](OC(=O)Nc2cccc(F)c2)[C@H](OC(=O)c2cc3ccccc3[nH]2)[C@H]1OC(=O)c1cc2ccccc2[nH]1 shows composite z-score at minimum 0.6?
Reply: No

Ask: Is composite z-score for COCCOC(=O)N1C(=O)[C@@]2(c3cc(C#CCC(C(=O)OC)C(=O)OC)ccc31)[C@H](C(=O)N1CCc3cc(OC)c(OC)cc3C1)[C@H]1C(=O)O[C@H](c3ccccc3)[C@H](c3ccccc3)N1[C@@H]2c1ccccc1OCCO at or above 0.6?
Reply: Yes

Ask: Decide: composite z-score of CC(C)c1ccc(NN2C(C(O)C3CCCCC3)C=CC3C(=O)N(c4ccccc4)C(=O)C32)cc1 (stereo unspecified) >= 0.6?
Reply: Yes

Ask: Evaluate C=CCNC(=O)[C@H]1[C@@H]2C(=O)O[C@@H](c3ccccc3)[C@@H](c3ccccc3)N2[C@@H](c2ccc(OCCO)cc2)[C@]12C(=O)Nc1ccc(C#Cc3ccc(OC)cc3)cc12 : composite z-score at minimum 0.6?
Reply: Yes

---

Biological target: Fibroblast growth factor 2 (Homo sapiens)
Assay: FGF2 binders on small-molecule microarrays, primary screen, biochemical, small-molecule microarray, 635/667 nm fluorescence (AID 1133)
Conditions: small-molecule microarray binding, FGF2, fluorescence 635/667; higher = more signal
metric: composite z-score
Simply state the number, no unit and no words.

Ask: GET /values?readout=composite z-score&system=Fibroblast growth factor 2 (Homo sapiens)&item= CO[C@H]1O[C@H](CO)[C@@H](OC(=O)Nc2cccc(F)c2)[C@H](OC(=O)Nc2ccc3c(c2)OCO3)[C@@H]1OC(=O)Nc1ccc2c(c1)OCO2
Reply: 0.217

Ask: What value of composite z-score on Fibroblast growth factor 2 (Homo sapiens) does C=CCNC(=O)[C@H]1[C@@H]2C(=O)O[C@@H](c3ccccc3)[C@@H](c3ccccc3)N2[C@@H](c2ccc(O)cc2)[C@]12C(=O)N(C(=O)OCCOC)c1ccc(C#Cc3ccc(OC)cc3)cc12 have?
Reply: 0.817

Ask: Form field - read-out: composite z-score; system: Fibroblast growth factor 2 (Homo sapiens); submitted item: CC[C@@H]1C=C(C(=O)O)[C@H](c2cccc(Cl)c2)N1S(=O)(=O)c1ccc(C)cc1
Reply: -0.686

Ask: Observed composite z-score on Fibroblast growth factor 2 (Homo sapiens) for COC(=O)C1(CC(C)C)C=C2C(=C(C)C(=O)C2C)CN1 (centres undefined) , please.
Reply: -0.583

Ask: Which composite z-score is reported with Fibroblast growth factor 2 (Homo sapiens) for this entry: C=C(CC1([C@@H](NP(=O)(c2ccccc2)c2ccccc2)[C@H]2C[C@@H]2CCCC)CC1)c1cccc(OC)c1 ?
Reply: -0.7

Ask: Hi! What's the reported composite z-score for C[C@@]1([C@@H](NS(=O)(=O)c2cccc3cccnc23)c2ccc(-c3ccccc3)cc2)C[C@H]1C1CCCCC1 on Fibroblast growth factor 2 (Homo sapiens)?
Reply: -0.506

Ask: GET /values?readout=composite z-score&system=Fibroblast growth factor 2 (Homo sapiens)&item= CN1C(=O)C2C=CC(C(O)c3ccc(I)cc3)N(N(c3ccccc3)c3ccccc3)C2C1=O (centres undefined)
Reply: -0.394

Ask: Look up composite z-score with Fibroblast growth factor 2 (Homo sapiens) for this compound: COc1ccc(CCNC(=O)[C@@H]2c3ccccc3C(=O)N(Cc3cc(F)cc(C(F)(F)F)c3)[C@H]2c2ccc(CO)cc2)cc1
Reply: 0.409

Ask: Lab note: need composite z-score with Fibroblast growth factor 2 (Homo sapiens) for entry CN(C)CCCCNC(=O)[C@H]1C[C@H]2C(=O)N[C@@H](CCCCN(C)C)C(=O)N2[C@H]1c1ccc(O)cc1 , please look it up.
Reply: 0.988

Ask: Notebook entry, Fibroblast growth factor 2 (Homo sapiens) assay: composite z-score of CCOC(=O)C[C@H]1[C@H](OC(=O)c2cc3ccccc3oc2=O)[C@@H](NC(=O)c2ccc(-c3ccccc3)cc2)c2cc(OCCCO)ccc2N1C(=O)Cc1ccc(OC)cc1 = ?
Reply: 1.41

Ask: Return composite z-score measured with Fibroblast growth factor 2 (Homo sapiens) given this compound: COC(=O)C[C@H]1O[C@]2(C(=O)N(C)c3ccccc32)[C@@H](C)[C@@H]1[Si](C)(C)c1ccccc1
Reply: 0.856

Ask: Recall the recorded composite z-score for CN(C)C(=O)[C@]1(CCS(=O)(=O)c2ccccc2)N=C(c2ccc(OCCCO)cc2)O[C@@H]1c1ccccc1CN=[N+]=[N-] with Fibroblast growth factor 2 (Homo sapiens) and state it.
Reply: 1.45

Ask: Lab note: need composite z-score with Fibroblast growth factor 2 (Homo sapiens) for entry CCOC(=O)C1=CCC(c2ccncc2)N(S(=O)(=O)c2ccc(C)cc2)C1 (centres undefined) , please look it up.
Reply: 0.454

Ask: Form: Entry = CC(C)(C)OC(=O)CC[C@@]1(C(N)=O)N=C(c2ccc(OCCCO)cc2)O[C@@H]1c1ccccc1CN=[N+]=[N-] | System = Fibroblast growth factor 2 (Homo sapiens) | composite z-score = ____
Reply: 1.34

Ask: For Fibroblast growth factor 2 (Homo sapiens), provide composite z-score of C=CCN1C(=O)[C@]2(O[C@H](CCO)[C@@H]([Si](C)(C)c3ccc(OC)cc3)[C@@H]2C)c2cc(N3C(=O)c4ccccc4Oc4ccccc43)ccc21 please.
Reply: 0.0857

Ask: // fetch Fibroblast growth factor 2 (Homo sapiens) composite z-score for C=CCNC(=O)[C@@H]1[C@H]2C(=O)O[C@H](c3ccccc3)[C@H](c3ccccc3)N2[C@H](c2ccc(OCCO)cc2)[C@@]12C(=O)N(C(=O)OCCOC)c1ccccc12
Reply: 1.26

Ask: Query for Fibroblast growth factor 2 (Homo sapiens): what composite z-score does the record show for CCCC=C(CCC)[C@@H](NC(=O)c1ccc(C(=O)OC)cc1)c1ccc(C(=O)OC)cc1 ?
Reply: -1.47

Ask: # query: composite z-score | item CC(C)C[C@H]1NC(=O)CNC(=O)[C@@]23C(=O)N[C@@H](Cc4ccccc4)C2[C@H](C)[C@@]2(C)O[C@H]2C3/C=C/C/C=C\CNC1=O (some centres undefined) | system: Fibroblast growth factor 2 (Homo sapiens)
Reply: 0.0369

Ask: Entry CCCCCCc1nc(Cc2cc(OC)c(OC)c(OC)c2)c(C)c2c1[Si](C(C)C)(C(C)C)OC2 , system Fibroblast growth factor 2 (Homo sapiens): what composite z-score was measured?
Reply: 0.444

Ask: Enter reported composite z-score observed with Fibroblast growth factor 2 (Homo sapiens) for C=C(C(=O)CC[C@@H](OC(=O)c1ccccc1-c1ccccc1C(=O)O)c1ccc(OCCO)cc1)C(C)C
Reply: 1.77

Ask: Query the reported composite z-score for Fibroblast growth factor 2 (Homo sapiens); item: C=CCC(OC(C)=O)[C@@H]1[C@@H](N(Cc2ccc(-c3ccccc3)cc2)C(=O)Cc2ccc(OC)cc2)c2cc(OCCCO)ccc2N1C(=O)Cc1ccc(OC)cc1 (some centres undefined)
Reply: 0.0471

Ask: Observed composite z-score on Fibroblast growth factor 2 (Homo sapiens) for C=CC[C@H](O)c1ccc(O)c(F)c1 , please.
Reply: -0.975

Ask: Item: CCCCCCCCCCC(O)C1C=CC2C(=O)N(C)C(=O)C2N1Nc1ccccc1 (centres undefined) Test system: Fibroblast growth factor 2 (Homo sapiens) Read-out: composite z-score Value: ?
Reply: -1.84

Ask: Item C=CCN1C(=O)[C@@]2(O[C@@H](CCO)[C@H]([Si](C)(C)c3ccc(OC)cc3)[C@H]2C)c2cc(N3CCCCC3=O)ccc21 with Fibroblast growth factor 2 (Homo sapiens) - composite z-score?
Reply: 0.821

Ask: Given the entry C=C(CCCC)/C(=C/C[C@@H](OC(C)=O)c1cccc(OCCO)c1)c1cc(C(=O)OC)ccc1OC , what composite z-score was observed with Fibroblast growth factor 2 (Homo sapiens)?
Reply: 0.0923

Ask: Record lookup: for Fibroblast growth factor 2 (Homo sapiens), what composite z-score belongs to O=C1C2C=CC(C(O)C3CC=CCC3)N(Nc3ccc([N+](=O)[O-])cc3)C2C(=O)N1c1ccccc1 (centres undefined) ?
Reply: 0.0341

Ask: Request: composite z-score, test system Fibroblast growth factor 2 (Homo sapiens), entry C=CC[C@@]1(C(=O)NCCCOC)N=C(c2ccc(OCCCO)cc2)O[C@@H]1c1ccccc1CN=[N+]=[N-]
Reply: 0.312

Ask: For the record CC(C)(C)OC(=O)CC[C@@]1(C(=O)N2CCOCC2)N=C(c2ccc(OCCCO)cc2)O[C@@H]1c1ccccc1CN=[N+]=[N-] , what value of composite z-score is listed for Fibroblast growth factor 2 (Homo sapiens)?
Reply: 1.76

Ask: Field: composite z-score (Fibroblast growth factor 2 (Homo sapiens)). Entry: COc1ccc([Si](C)(C)[C@@H]2[C@@H](CC(=O)N3CCC[C@H]3CO)O[C@]3(C(=O)N(Cc4cccc(N5C(=O)c6cccc7cccc5c67)c4)c4ccccc43)[C@H]2C)cc1
Reply: 1.43
